System: MDA-MB-435
Assay text: NCI tumour cell line growth inhibition, 48 h
Activity calls are given as the source filed them. No stated cut-off is given here; in the data, active = GI50 up to about 1.1 µM and inactive = higher.
In this section, each of the compounds is paired with its reported GI50.

Consider the reported GI50 for these compounds:
Compound | Result
CCOC(=O)CCC(NC(=O)c1ccc(Oc2nc3ccccc3nc2-c2ccccc2)cc1)C(=O)OCC (stereo not given) | > 52.1 µM (inactive)
COc1cc(/C=C/C(=O)CC(=O)/C=C/c2cc(OC)c(O)c(OC)c2)cc(OC)c1O | 6.17 µM (inactive)

Consider the compound shown here: Cc1cccc(CNNC(=O)c2cc[n+]([BH2-]C#N)cc2)c1 What is its recorded GI50?
28.3 µM (inactive)

Consider the compound shown here: COC(=O)C#Cc1ccc([N+](=O)[O-])cc1 What is its recorded GI50?
2.18 µM (inactive)

Consider the compound shown here: COC[C@@H](/N=C/c1ccc([N+](=O)[O-])cc1)C(C)C What is its recorded GI50?
> 100 µM (inactive)
